Source listed as ChEMBL document CHEMBL5291721.

The following molecules are listed with their measured AC50 values.
- targetDesc: 5-hydroxytryptamine receptor 2B (Homo sapiens); also: assay procedure not described here
- Sequence (P41595 whole entry): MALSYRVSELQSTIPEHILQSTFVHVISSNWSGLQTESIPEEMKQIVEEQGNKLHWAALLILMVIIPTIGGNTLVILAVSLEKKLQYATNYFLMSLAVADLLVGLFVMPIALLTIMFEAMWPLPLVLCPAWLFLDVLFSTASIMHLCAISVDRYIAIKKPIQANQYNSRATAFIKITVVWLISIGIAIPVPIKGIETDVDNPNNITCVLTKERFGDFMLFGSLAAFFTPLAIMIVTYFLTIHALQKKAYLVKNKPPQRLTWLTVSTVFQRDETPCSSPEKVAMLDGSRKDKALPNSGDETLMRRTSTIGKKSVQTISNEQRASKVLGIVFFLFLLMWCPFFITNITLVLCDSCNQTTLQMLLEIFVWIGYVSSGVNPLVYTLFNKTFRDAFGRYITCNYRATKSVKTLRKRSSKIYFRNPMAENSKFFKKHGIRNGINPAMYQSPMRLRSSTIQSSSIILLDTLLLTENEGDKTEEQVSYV
- Type: functional, cell-based

Please provide the recorded AC50 for `CC(C)c1cccc(C(C)C)c1O` , tested on 5-hydroxytryptamine receptor 2B (Homo sapiens). Also: assay procedure not described here.
> 30 µM

Please provide the recorded AC50 for `O=C(c1cc(Cc2n[nH]c(=O)c3ccccc23)ccc1F)N1CCN(C(=O)C2CC2)CC1` , tested on 5-hydroxytryptamine receptor 2B (Homo sapiens). Also: assay procedure not described here.
> 10 µM

Please provide the recorded AC50 for `Cn1cc(C(=O)[C@@H]2CCc3nc[nH]c3C2)c2ccccc21` , tested on 5-hydroxytryptamine receptor 2B (Homo sapiens). Also: assay procedure not described here.
20 µM

Please provide the recorded AC50 for CC(CN1c2ccccc2Sc2ccccc21)N(C)C (stereo unspecified) , tested on 5-hydroxytryptamine receptor 2B (Homo sapiens). Also: assay procedure not described here.
1.4 µM

Please provide the recorded AC50 for `OC[C@H]1O[C@@H](Oc2cc(O)cc(/C=C/c3ccc(O)cc3)c2)[C@H](O)[C@@H](O)[C@@H]1O` , tested on 5-hydroxytryptamine receptor 2B (Homo sapiens). Also: assay procedure not described here.
> 30 µM

Please provide the recorded AC50 for CC(=O)c1ccc(S(=O)(=O)NC(=O)NC2CCCCC2)cc1 [ACETOHEXAMIDE] , tested on 5-hydroxytryptamine receptor 2B (Homo sapiens). Also: assay procedure not described here.
> 30 µM

Please provide the recorded AC50 for `CN(C)Cc1nnc2n1-c1ccc(Cl)cc1C(c1ccccc1)=NC2` , tested on 5-hydroxytryptamine receptor 2B (Homo sapiens). Also: assay procedure not described here.
> 10 µM

Please provide the recorded AC50 for NC[C@H]1CC[C@H](C(=O)Oc2ccc(CCC(=O)O)cc2)CC1 [CETRAXATE] , tested on 5-hydroxytryptamine receptor 2B (Homo sapiens). Also: assay procedure not described here.
> 30 µM

New cases:
Please provide the recorded AC50 for CCN1CCCC1CNC(=O)c1cc(S(=O)(=O)CC)ccc1OC (stereo unspecified) [SULTOPRIDE] , tested on 5-hydroxytryptamine receptor 2B (Homo sapiens). Also: assay procedure not described here.
1.3 µM

Please provide the recorded AC50 for `CCCc1cc(=O)[nH]c(=S)[nH]1` , tested on 5-hydroxytryptamine receptor 2B (Homo sapiens). Also: assay procedure not described here.
> 10 µM

Please provide the recorded AC50 for CC(C(=O)O)c1ccc2c(c1)CC(=O)c1ccccc1S2 (stereo unspecified) , tested on 5-hydroxytryptamine receptor 2B (Homo sapiens). Also: assay procedure not described here.
> 30 µM

Please provide the recorded AC50 for `COc1cc(C(C)=O)ccc1OCCCN1CCC(c2noc3cc(F)ccc23)CC1` , tested on 5-hydroxytryptamine receptor 2B (Homo sapiens). Also: assay procedure not described here.
1.8 µM

Please provide the recorded AC50 for `CC(C)[C@H](N)C(=O)OCCOCn1cnc2c(=O)[nH]c(N)nc21` , tested on 5-hydroxytryptamine receptor 2B (Homo sapiens). Also: assay procedure not described here.
> 10 µM

Please provide the recorded AC50 for `CCCN(CCC)S(=O)(=O)c1ccc(C(=O)O)cc1` , tested on 5-hydroxytryptamine receptor 2B (Homo sapiens). Also: assay procedure not described here.
> 10 µM

Please provide the recorded AC50 for `COc1ccc([C@@H]2CC(=O)c3c(O)cc(O)cc3O2)cc1O` , tested on 5-hydroxytryptamine receptor 2B (Homo sapiens). Also: assay procedure not described here.
> 10 µM
